System: IGROV-1
Protocol notes: NCI tumour cell line growth inhibition, 48 h
Active and inactive are the calls of the source. Cut-off read from the data, not from the text of the source: active = GI50 up to about 1.1 µM and inactive = higher.
Observed property: GI50

>  <Compound>
Cc1cc(C)c(NC(=O)/C=C/c2ccccc2)c(C)c1

>  <Test value>
> 100 µM (inactive)

$$$$
>  <Compound>
COc1ccc(Oc2cccc(C3C4C(=O)N(c5ccc(C)c(Cl)c5)C(=O)C4ON3C(C(N)=O)c3ccccc3)c2)cc1 (stereo not drawn)

>  <Test value>
18.8 µM (inactive)

$$$$
>  <Compound>
C1=C2C3=[N+](CCCCC3)CC2Cc2ccsc21 (stereo not drawn)

>  <Test value>
> 100 µM (inactive)

$$$$
>  <Compound>
O=C(O)c1ccccc1C(=O)NCC1S(=O)(=O)OCCOS1(=O)=O

>  <Test value>
> 100 µM (inactive)

$$$$
>  <Compound>
O=C(O)C(=Cc1ccnc2ccccc12)C(=O)O

>  <Test value>
> 100 µM (inactive)

$$$$
>  <Compound>
CN(C)CCCn1c(Cc2ccc(Cl)cc2)nc2cc(C(F)(F)F)ccc21

>  <Test value>
13.1 µM (inactive)

$$$$
>  <Compound>
C[C@]12CC[C@H]3[C@@H](CC[C@]4(O)C[C@@H](O)CC[C@]34CO)[C@@]1(O)CC[C@@H]2C1=CC(=O)OC1

>  <Test value>
2.79 µM (inactive)

$$$$
>  <Compound>
COc1ccc(C2=NN(C(C)=O)c3nc4ccccc4nc3O2)cc1

>  <Test value>
3.33 µM (inactive)

$$$$
>  <Compound>
CC(=O)O[C@H]1CC[C@@]2(C)C(=CC[C@@H]3[C@@H]2CC[C@]2(C)c4c(cc(C#N)c(=N)n4C(C)=O)C[C@@H]32)C1

>  <Test value>
22.2 µM (inactive)

$$$$
>  <Compound>
CCCCn1c(C)c(C(=O)OCC)c2cc(OCc3ccc(C(=O)Nn4c(C)ccc4C)cc3)c(Br)cc21

>  <Test value>
> 100 µM (inactive)

$$$$
>  <Compound>
COC(=O)C1=C(C(=O)OC)C2(CCCCCC2=O)OC1=O (stereo not drawn)

>  <Test value>
> 100 µM (inactive)

$$$$
>  <Compound>
CC(C)(C)[Si](C)(C)Oc1ccc(C2CNC(=O)C23CCC(=O)N3Cc2ccccc2)cc1 (stereo not drawn)

>  <Test value>
15.3 µM (inactive)

$$$$
>  <Compound>
Cc1ccc(NC(=O)NC(=O)c2ccc([N+](=O)[O-])cc2[N+](=O)[O-])cc1Oc1ncc(Cl)cn1

>  <Test value>
1.13 µM (inactive)

$$$$
>  <Compound>
COc1cc(/C=C/C(=O)c2sc(NNC(C)=O)nc2C)ccc1O

>  <Test value>
> 100 µM (inactive)

$$$$
>  <Compound>
O=C(Nc1ccccc1)O/N=C(/CBr)c1ccccc1

>  <Test value>
14.6 µM (inactive)

$$$$
>  <Compound>
O=C(O)CCSC(CC1(c2ccc(Cl)cc2)NC(=O)CCS1)c1ccccc1 (stereo not drawn)

>  <Test value>
12.1 µM (inactive)

$$$$
>  <Compound>
O=C(O)c1cncc(C(=O)O)c1

>  <Test value>
> 100 µM (inactive)

$$$$
>  <Compound>
NCCN1C(=O)c2cc(Cl)c(Cl)cc2C1(O)c1ccc(Cl)cc1 (stereo not drawn)

>  <Test value>
2.07 µM (inactive)

$$$$
